Can you tell me IC50 for the items I'm about to list?
Numeric only. Scale: µM

Short answer please: IC50, Isocitrate lyase (Candida albicans, UniProt Q9P8Q7), entry CC1=CCC[C@@H](C)[C@]1(C)CC/C(C)=C/CCC(CCCc1ccoc1)COS(=O)(=O)O.CN(C)C(=N)N (stereo partly specified)
186

Isocitrate lyase (Candida albicans, UniProt Q9P8Q7) / IC50 / CC1=CC[C@H]2C(C)(C)CCC[C@]2(C)[C@H]1C[C@@H](OS(=O)(=O)O)[C@H](C)CCC/C(C)=C/Cc1cc(O)ccc1O.CN(C)C(=N)N : value?
158

API: value(readout=IC50, system=Isocitrate lyase (Candida albicans, UniProt Q9P8Q7)) for record CC1=CC[C@H]2C(C)(C)CCC[C@]2(C)[C@H]1C[C@@H](OS(=O)(=O)[O-])[C@H](C)CCC/C(C)=C/Cc1cc(O)ccc1O.[Na+] [HALISULFATE 1]
70.2

API: value(readout=IC50, system=Isocitrate lyase (Candida albicans, UniProt Q9P8Q7)) for record O=C(O)CC[N+](=O)[O-]
50.7

What is its IC50 for Isocitrate lyase (Candida albicans, UniProt Q9P8Q7)? Entry: CN(C)C(=N)N.C[C@@H]1CCC2=C(CCCC2(C)C)[C@@]1(C)CC[C@H](CCCc1ccoc1)COS(=O)(=O)O
33.8

API: value(readout=IC50, system=Isocitrate lyase (Candida albicans, UniProt Q9P8Q7)) for record C=C1CCC[C@@H]2[C@@](C)(CC[C@H](CCCc3ccoc3)COS(=O)(=O)O)[C@H](C)CC[C@]12C.CN(C)C(=N)N
31.3

meta.source: ChEMBL document CHEMBL1142476
